study-system: UniProt:Q8R0I0
measurement-notes: ACE2 activity assay in murine heart homogenate
Format: biochemical
property: pIC50
pIC50 is defined as minus the log10 of a concentration measured in mol/L.

Given the compound CC(C)C[C@H](N[C@@H](Cc1cncn1Cc1cc(Cl)cc(Cl)c1)C(=O)O)C(=O)O [isomer B] , what is its reported pIC50?
6.60

----------
study-system: Murine MNC ACE2 (Mus musculus, UniProt Q8R0I0)
Sequence (Q8R0I0 18-805): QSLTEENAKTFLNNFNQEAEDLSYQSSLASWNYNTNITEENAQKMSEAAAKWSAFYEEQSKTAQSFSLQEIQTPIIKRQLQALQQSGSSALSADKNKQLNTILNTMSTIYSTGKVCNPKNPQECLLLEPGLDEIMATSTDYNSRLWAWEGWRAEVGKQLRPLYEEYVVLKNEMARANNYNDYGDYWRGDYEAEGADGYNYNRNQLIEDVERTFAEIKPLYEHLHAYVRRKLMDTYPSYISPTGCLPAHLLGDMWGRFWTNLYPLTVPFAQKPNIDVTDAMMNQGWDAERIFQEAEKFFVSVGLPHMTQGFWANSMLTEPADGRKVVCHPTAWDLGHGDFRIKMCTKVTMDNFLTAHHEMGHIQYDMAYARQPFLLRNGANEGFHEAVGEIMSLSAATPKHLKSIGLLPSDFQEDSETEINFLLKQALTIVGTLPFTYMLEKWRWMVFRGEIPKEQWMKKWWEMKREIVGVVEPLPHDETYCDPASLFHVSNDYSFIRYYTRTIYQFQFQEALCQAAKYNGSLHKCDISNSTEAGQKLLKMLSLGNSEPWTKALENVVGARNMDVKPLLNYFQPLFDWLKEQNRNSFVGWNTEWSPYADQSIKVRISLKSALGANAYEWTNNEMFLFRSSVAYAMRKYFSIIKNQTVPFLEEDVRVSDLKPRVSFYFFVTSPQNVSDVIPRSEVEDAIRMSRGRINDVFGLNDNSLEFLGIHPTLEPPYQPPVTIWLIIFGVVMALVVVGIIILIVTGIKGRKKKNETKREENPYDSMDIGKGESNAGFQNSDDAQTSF
measurement-notes: ACE2 activity assay in murine mononuclear cell lysates
property: Ki

Given the compound CC(C)C[C@H](N[C@@H](Cc1cncn1Cc1cc(Cl)cc(Cl)c1)C(=O)O)C(=O)O [isomer B] , what is its reported Ki?
2100 nM

----------
study-system: ACE in murine heart (Mus musculus)
Sequence (P09470 35-1312): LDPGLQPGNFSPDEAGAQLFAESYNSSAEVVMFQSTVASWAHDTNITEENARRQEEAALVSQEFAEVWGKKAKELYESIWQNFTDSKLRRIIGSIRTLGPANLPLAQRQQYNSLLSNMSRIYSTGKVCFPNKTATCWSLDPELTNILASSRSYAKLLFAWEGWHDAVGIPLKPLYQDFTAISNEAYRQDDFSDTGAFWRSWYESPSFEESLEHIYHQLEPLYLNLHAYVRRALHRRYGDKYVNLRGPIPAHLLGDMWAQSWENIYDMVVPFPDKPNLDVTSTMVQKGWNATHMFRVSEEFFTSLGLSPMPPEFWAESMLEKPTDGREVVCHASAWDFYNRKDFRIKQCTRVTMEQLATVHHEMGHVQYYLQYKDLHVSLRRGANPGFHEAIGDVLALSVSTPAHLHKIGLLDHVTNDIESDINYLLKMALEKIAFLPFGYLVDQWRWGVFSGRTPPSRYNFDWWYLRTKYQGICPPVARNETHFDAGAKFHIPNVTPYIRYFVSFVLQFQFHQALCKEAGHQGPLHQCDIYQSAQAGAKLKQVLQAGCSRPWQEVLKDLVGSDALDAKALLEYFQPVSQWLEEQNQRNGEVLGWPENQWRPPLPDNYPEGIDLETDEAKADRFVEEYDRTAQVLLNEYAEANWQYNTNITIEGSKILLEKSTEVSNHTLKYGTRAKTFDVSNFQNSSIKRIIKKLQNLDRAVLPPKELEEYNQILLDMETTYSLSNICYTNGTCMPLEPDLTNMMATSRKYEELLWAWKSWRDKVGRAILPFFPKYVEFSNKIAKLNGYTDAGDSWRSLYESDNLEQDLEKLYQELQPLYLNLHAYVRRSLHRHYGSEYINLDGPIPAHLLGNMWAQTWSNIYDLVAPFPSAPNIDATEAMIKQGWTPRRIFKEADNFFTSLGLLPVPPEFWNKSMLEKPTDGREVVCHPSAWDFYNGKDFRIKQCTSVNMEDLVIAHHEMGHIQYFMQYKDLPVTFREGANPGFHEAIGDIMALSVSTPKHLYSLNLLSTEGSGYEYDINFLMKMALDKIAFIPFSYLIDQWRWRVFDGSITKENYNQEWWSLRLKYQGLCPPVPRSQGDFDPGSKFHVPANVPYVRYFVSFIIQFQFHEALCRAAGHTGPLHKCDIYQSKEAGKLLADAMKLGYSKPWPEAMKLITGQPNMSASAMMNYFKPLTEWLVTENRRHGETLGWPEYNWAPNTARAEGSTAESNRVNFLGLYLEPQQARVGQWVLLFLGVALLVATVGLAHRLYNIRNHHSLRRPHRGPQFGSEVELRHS
property: pIC50
pIC50 is defined as minus the log10 of a concentration measured in mol/L.

Given the molecule CC(C)C[C@H](N[C@@H](Cc1cncn1Cc1cc(Cl)cc(Cl)c1)C(=O)O)C(=O)O [isomer B] , what is its reported pIC50?
4.20

----------
study-system: ACE in human CD34+ cells (Homo sapiens, UniProt P12821)
Sequence (P12821 30-1306): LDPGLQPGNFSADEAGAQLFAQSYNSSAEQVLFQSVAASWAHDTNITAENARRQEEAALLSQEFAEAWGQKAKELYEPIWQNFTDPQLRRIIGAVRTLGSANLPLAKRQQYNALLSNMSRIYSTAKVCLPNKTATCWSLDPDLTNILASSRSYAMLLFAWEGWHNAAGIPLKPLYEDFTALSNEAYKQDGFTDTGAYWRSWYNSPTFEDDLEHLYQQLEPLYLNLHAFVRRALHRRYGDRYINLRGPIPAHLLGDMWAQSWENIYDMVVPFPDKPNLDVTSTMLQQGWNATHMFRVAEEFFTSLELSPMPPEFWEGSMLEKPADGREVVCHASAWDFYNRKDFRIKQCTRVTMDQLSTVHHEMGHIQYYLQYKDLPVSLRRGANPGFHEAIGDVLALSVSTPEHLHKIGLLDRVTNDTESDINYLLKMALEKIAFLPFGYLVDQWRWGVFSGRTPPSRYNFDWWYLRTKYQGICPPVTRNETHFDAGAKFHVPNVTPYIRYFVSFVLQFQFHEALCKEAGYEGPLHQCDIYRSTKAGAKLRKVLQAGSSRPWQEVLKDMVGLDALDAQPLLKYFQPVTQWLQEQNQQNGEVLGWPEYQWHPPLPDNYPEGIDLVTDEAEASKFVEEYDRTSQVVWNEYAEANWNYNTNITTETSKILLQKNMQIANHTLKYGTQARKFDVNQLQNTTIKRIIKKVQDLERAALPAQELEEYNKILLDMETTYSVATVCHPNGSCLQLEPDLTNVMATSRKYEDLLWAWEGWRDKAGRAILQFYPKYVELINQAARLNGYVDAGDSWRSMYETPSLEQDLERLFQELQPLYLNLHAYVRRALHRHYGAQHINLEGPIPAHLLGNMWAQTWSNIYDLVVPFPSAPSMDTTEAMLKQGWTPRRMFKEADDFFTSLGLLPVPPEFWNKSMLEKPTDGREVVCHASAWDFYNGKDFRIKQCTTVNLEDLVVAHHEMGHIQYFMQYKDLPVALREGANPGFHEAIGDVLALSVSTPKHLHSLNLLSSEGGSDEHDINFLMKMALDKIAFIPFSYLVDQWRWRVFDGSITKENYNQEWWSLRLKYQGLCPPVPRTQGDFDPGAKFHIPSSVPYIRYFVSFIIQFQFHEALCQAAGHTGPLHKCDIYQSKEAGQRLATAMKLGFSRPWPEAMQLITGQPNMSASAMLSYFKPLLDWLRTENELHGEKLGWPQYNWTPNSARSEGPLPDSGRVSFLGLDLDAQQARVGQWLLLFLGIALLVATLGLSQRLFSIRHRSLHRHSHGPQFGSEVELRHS
measurement-notes: ACE activity assay in human CD34+ cell lysates
property: pIC50
pIC50 is defined as minus the log10 of a concentration measured in mol/L.

Given the compound CC(C)C[C@H](N[C@@H](Cc1cncn1Cc1cc(Cl)cc(Cl)c1)C(=O)O)C(=O)O [isomer B] , what is its reported pIC50?
4.90

----------
study-system: Murine MNC ACE2 (Mus musculus, UniProt Q8R0I0)
measurement-notes: ACE2 activity assay in murine mononuclear cell lysates
recorded-conditions: pIC50 at ACE2 in murine MNCs, cell lysate, 4 h
property: IC50 (nM)
Provide only the numeric value, understood in nM.

Given the molecule CC(C)C[C@H](N[C@@H](Cc1cncn1Cc1cc(Cl)cc(Cl)c1)C(=O)O)C(=O)O [isomer B] , what is its reported IC50?
79.4

----------
study-system: Murine MNC ACE (Mus musculus, UniProt P09470)
Sequence (P09470 35-1312): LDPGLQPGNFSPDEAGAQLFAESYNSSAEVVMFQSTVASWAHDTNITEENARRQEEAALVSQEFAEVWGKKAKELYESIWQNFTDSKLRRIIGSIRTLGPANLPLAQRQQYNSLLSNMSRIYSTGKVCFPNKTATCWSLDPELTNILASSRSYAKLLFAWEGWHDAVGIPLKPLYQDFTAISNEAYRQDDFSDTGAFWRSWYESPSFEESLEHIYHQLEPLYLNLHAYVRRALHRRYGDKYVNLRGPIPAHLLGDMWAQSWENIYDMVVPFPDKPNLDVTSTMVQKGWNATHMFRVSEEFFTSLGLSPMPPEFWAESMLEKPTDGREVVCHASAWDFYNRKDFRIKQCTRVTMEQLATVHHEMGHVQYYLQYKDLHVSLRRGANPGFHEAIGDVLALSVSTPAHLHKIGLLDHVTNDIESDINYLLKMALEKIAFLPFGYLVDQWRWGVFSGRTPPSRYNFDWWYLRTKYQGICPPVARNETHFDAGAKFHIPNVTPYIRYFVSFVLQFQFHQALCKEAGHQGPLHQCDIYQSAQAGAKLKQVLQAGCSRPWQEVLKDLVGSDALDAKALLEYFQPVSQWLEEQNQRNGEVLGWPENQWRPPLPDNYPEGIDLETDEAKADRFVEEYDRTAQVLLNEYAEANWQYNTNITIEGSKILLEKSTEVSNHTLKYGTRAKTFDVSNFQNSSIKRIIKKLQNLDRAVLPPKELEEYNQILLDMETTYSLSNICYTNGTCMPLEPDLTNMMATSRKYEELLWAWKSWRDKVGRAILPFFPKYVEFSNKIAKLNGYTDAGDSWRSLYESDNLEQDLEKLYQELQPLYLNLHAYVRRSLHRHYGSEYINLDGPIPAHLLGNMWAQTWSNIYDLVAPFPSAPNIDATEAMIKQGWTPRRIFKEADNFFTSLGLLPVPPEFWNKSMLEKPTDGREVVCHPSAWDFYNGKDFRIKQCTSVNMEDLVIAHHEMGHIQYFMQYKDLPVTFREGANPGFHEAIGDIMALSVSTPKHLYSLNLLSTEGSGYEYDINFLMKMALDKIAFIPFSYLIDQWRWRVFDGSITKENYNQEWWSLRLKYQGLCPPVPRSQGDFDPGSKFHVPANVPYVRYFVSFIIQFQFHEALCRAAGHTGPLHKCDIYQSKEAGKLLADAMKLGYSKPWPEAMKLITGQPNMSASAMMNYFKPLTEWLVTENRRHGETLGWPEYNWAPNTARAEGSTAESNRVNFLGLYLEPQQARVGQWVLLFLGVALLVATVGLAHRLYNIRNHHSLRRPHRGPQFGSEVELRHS
measurement-notes: ACE activity assay in murine mononuclear cell lysates
property: IC50 (µM)
Provide only the numeric value, understood in µM.

Given the compound CC(C)C[C@H](N[C@@H](Cc1cncn1Cc1cc(Cl)cc(Cl)c1)C(=O)O)C(=O)O [isomer B] , what is its reported IC50?
20

----------
study-system: UniProtKB Q9BYF1
measurement-notes: ACE2 activity assay in human mononuclear cell lysates
recorded-conditions: IC50, Human ACE2 (human MNCs)
property: pIC50
pIC50 is defined as minus the log10 of a concentration measured in mol/L.

Given the compound CC(C)C[C@H](N[C@@H](Cc1cncn1Cc1cc(Cl)cc(Cl)c1)C(=O)O)C(=O)O [isomer B] , what is its reported pIC50?
6.30

----------
study-system: Recombinant Human ACE2 (rhACE2) (Homo sapiens, UniProt Q9BYF1)
Sequence (Q9BYF1 18-805): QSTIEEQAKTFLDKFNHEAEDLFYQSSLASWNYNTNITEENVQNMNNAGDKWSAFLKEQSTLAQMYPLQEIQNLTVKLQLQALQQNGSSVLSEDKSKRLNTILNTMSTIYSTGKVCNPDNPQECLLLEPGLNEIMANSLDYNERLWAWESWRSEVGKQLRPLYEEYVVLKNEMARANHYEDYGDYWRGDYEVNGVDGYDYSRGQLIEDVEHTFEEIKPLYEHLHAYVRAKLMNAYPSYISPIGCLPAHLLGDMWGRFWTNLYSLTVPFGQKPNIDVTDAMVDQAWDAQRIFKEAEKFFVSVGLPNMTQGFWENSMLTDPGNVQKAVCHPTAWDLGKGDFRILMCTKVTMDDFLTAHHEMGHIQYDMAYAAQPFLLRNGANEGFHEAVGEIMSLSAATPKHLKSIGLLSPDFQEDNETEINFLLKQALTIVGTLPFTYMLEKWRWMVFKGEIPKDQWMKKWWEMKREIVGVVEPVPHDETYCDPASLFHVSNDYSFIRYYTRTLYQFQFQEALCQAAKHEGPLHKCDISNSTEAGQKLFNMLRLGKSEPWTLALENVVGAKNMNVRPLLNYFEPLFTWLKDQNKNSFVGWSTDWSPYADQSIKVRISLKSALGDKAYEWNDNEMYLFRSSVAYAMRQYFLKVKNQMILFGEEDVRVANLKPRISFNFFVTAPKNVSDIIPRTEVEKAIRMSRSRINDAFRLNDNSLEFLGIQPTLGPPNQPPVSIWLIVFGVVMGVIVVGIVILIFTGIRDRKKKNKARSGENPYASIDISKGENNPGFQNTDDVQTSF
measurement-notes: ACE2 activity assay with recombinant human ACE2
property: Ki (nM)
Provide only the numeric value, understood in nM.

Given the compound CC(C)C[C@H](N[C@@H](Cc1cncn1Cc1cc(Cl)cc(Cl)c1)C(=O)O)C(=O)O [isomer B] , what is its reported Ki?
40

Recorded values, source paper PMC4804635.
